Target system: T1, human GIP receptor (human, UniProt P48546 22-466)
T1 construct: whole, on cells; also called hGIPR; human glucose-dependent insulinotropic polypeptide receptor
T1 sequence (looked up): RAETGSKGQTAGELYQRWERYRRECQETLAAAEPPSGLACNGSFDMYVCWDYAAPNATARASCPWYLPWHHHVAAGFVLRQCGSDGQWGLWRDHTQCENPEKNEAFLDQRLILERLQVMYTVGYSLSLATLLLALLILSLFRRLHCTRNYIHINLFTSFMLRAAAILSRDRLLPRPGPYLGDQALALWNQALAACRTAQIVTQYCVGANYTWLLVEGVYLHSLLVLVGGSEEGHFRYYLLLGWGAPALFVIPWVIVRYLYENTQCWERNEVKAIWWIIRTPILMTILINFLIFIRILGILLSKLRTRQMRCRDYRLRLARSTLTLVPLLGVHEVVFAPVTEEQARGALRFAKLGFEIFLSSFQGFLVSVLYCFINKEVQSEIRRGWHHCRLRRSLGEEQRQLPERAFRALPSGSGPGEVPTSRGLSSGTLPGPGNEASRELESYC
Procedure summary: SPA competition vs [125I]-GIP, hGIPR membranes
*1 amine or outer side, *2 acyl side, *3 side chain or, on linkers, in order; H or OH if unused. Where no end group is shown, it is not given here. Side-chain parts run from the residue outwards. [ ]: non-standard residue; d: D form. The star is where a group is joined. αMePhe(2-F) = C[C@](N)(Cc1ccccc1F)C(=O)O; γGlu = O=C(O)[C@H](CCC(=O)[*:2])N[*:1]; αMeY = C[C@](N)(Cc1ccc(O)cc1)C(=O)O; 4Pal = N[C@@H](Cc1ccncc1)C(=O)O; αMeL = CC(C)C[C@](C)(N)C(=O)O; Lauroyl = CCCCCCCCCCCC(=O)*; Orn = NCCC[C@H](N)C(=O)O; AEEA = NCCOCCOCC(=O)O; Aib = CC(C)(N)C(=O)O
Please provide measured Ki for the entries that follow.
Numbers only, in pM.

List the reported Ki of each binder below.
1. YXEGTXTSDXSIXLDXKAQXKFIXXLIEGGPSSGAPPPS (Aib2, αMeF(2F)6, 4Pal10, αMeL13, Orn16, K17(Z1), Aib20, K21(Z1), D-Glu24, αMeY25, C-term NH2; Z1=AEEA2-(γ-Glu)-CO-(CH2)12-CO2H)
2. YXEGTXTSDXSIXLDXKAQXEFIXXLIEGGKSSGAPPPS (Aib2, αMeF(2F)6, 4Pal10, αMeL13, Orn16, K17(Z1), Aib20, D-Glu24, αMeY25, K31(Z1), C-term NH2; Z1=(εK)-AEEA-(γ-Glu)-CO-(CH2)12-CO2H)
3. Y[Aib]EGT[αMePhe(2-F)]TSDK([AEEA-AEEA-γGlu-Lauroyl])[Aib]I[αMeL]LD[Orn]K([AEEA-AEEA-γGlu-Lauroyl])AQ[Aib][4Pal]FI[dE][αMeY]LIEGGPSSGAPPPS-NH2

62.9
103
15.2
